kon values by entry
# Target: T1, mFLAG-EGF34+NRR-His6, the mouse Notch1 NRR immunogen (Notch1 V1307-Q1723) (mouse, UniProt Q01705 1307-1723)
# T1 construct: the rest carries an N-terminal FLAG tag and a C-terminal His tag; also called mNotch1 NRR; murine NRR1
# T1 sequence (Q01705 other isoform, or with tags, fused parts or gaps): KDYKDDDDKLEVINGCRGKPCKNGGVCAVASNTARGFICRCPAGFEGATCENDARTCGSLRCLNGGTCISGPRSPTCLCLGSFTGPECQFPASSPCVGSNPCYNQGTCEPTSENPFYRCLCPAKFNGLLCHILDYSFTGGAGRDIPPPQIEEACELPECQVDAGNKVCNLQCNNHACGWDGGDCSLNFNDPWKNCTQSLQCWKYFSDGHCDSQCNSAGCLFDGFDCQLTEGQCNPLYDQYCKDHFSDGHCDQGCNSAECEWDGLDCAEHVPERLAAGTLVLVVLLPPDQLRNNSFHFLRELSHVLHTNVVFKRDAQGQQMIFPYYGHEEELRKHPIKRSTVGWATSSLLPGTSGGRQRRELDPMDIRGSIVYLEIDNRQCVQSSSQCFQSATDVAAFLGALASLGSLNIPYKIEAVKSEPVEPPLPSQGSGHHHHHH
# Assay Explanation: SPR (BIAcore-3000), IgG captured by anti-human IgG, NRR1-ECD injected 3.9-500 nM, 25 C

Binder: Antibody A-3 (antibody, V domains shown) VH: EVQLVESGGGLVQPGGSLRLSCAASGFTFSSYWIHWVRQAPGKGLEWVARINPANGSTRYADSVKGRFTISADTSKNTAYLQMNSLRAEDTAVYYCARGSGFRWVMDYWGQGTLVTVSS VL: DIQMTQSPSSLSASVGDRVTITCRASQDVSTAVAWYQQKPDGTVKLLIYSASFLYSGVPSRFSGSGSGTDFTLTISSLQPEDFATYYCQQSFSTPATFGQGTKVEIK
Unit Name: M⁻¹ s⁻¹
kon: 92000
--
Binder: Antibody A-1 (antibody, V domains shown, also called Antibody A-1-hIgG1) VH: EVQLVESGGGLVQPGGSLRLSCAASGFTFSSYWIHWVRQAPGKGLEWVARINPPNGSAHYADSVKGRFTISADTSKNTAYLQMNSLRAEDTAVYYCARGSGFRWVMDYWGQGTLVTVSS VL: DIQMTQSPSSLSASVGDRVTITCRASQDVSTAVAWYQQKPDGTVKLLIYSASFLYSGVPSRFSGSGSGTDFTLTISSLQPEDFATYYCQQSYTTPATFGQGTKVEIKR
Unit Name: M⁻¹ s⁻¹
kon: 85000
--
Binder: Antibody A-2 (antibody, V domains shown, also called Antibody A-2-hIgG1) VH: EVQLVESGGGLVQPGGSLRLSCAASGFTFSSYWIHWVRQAPGKGLEWVARINPPNRSNQYADSVKGRFTISADTSKNTAYLQMNSLRAEDTAVYYCARGSGFRWVMDYWGQGTLVTVSS VL: DIQMTQSPSSLSASVGDRVTITCRASQDVSTAVAWYQQKPDGTVKLLIYSASFLYSGVPSRFSGSGSGTDFTLTISSLQPEDFATYYCQQFYTTPSTFGQGTKVEIKR
Unit Name: M⁻¹ s⁻¹
kon: 110000
--
Binder: Antibody A (antibody, V domains shown, Tested as full-length human IgG1 (hIgG1) made in CHO cells; also called anti-Notch1 NRR Antibody A; Antibody A-hIgG1) VH: EVQLVESGGGLVQPGGSLRLSCAASGFTFSSYWIHWVRQAPGKGLEWVARINPSNGSTNYADSVKGRFTISADTSKNTAYLQMNSLRAEDTAVYYCARGSGFRWVMDYWGQGTLVTVSS VL: DIQMTQSPSSLSASVGDRVTITCRASQDVSTAVAWYQQKPDGTVKLLIYSASFLYSGVPSRFSGSGSGTDFTLTISSLQPEDFATYYCQQSYTTPPTFGQGTKVEIKR
Unit Name: M⁻¹ s⁻¹
kon: 91000
